Hi there, I'd appreciate the recorded cell growth for every entry that follows.
test system: OVCAR-3-derived ovarian cancer stem-like cells (spheroids); assay: cell growth relative to untreated control; higher = more growth (less inhibition); conditions: 2.29 µM; 96 h
Report only the number, with the unit % understood.

Inquiry: Quick one: cell growth of C/C(=N\NC(=S)N1CCN(C2CCCCCC2)CC1)c1ccccn1 ?
Reply text: 14.7

Inquiry: Quick one: cell growth of Nc1nc(Cl)nc2c1ncn2[C@H]1C[C@H](O)[C@@H](CO)O1 ?
Reply text: 82.7

Inquiry: Quick one: cell growth of CC(C)C1=CC2=CC[C@@H]3[C@](C)(CCC[C@@]3(C)C(=O)O)[C@H]2CC1 ?
Reply text: 114

Inquiry: Quick one: cell growth of CCOC(=O)Nc1cc2c(c(N)n1)N=C(c1ccccc1)CN2 ?
Reply text: 89.9

Inquiry: Quick one: cell growth of Cc1c2oc3c(C)ccc(C(=O)N[C@@H]4C(=O)N[C@H](C(C)C)C(=O)N5CCC[C@H]5C(=O)N(C)CC(=O)N(C)[C@@H](C(C)C)C(=O)O[C@@H]4C)c3nc-2c(C(=O)N[C@@H]2C(=O)N[C@H](C(C)C)C(=O)N3CCC[C@H]3C(=O)N(C)CC(=O)N(C)[C@@H](C(C)C)C(=O)O[C@@H]2C)c(N)c1=O ?
Reply text: 8.44

Inquiry: Quick one: cell growth of COc1ccc2c(NCCCCCCNc3c4ccccc4nc4cc(OC)ccc34)c3ccccc3nc2c1 ?
Reply text: 13.9

Inquiry: Quick one: cell growth of O=C(CC(=O)C(F)(F)F)c1csc2ccccc12 ?
Reply text: 93.5

Inquiry: Quick one: cell growth of Cc1ccc(S(=O)(=O)SC/C=C/CSS(=O)(=O)c2ccc(C)cc2)cc1 ?
Reply text: 113

Inquiry: Quick one: cell growth of C[CH2][Ge]([CH2]C)([CH2]C)[O]C(=O)CCC(=O)[O][Ge]([CH2]C)([CH2]C)[CH2]C ?
Reply text: 110

Inquiry: Quick one: cell growth of Cc1ccc(Nc2nc(C)c(C(/C=C/c3ccc(/C=C/C(=N\NC(=O)C[n+]4ccccc4)c4sc(Nc5ccc(C)cc5[N+](=O)[O-])nc4C)cc3)=N/NC(=O)C[n+]3ccccc3)s2)c([N+](=O)[O-])c1 ?
Reply text: 110

Inquiry: Quick one: cell growth of CN(C)CCNC(=O)c1cccc2[nH]c(-c3ccncc3)nc12 ?
Reply text: 96.5

Inquiry: Quick one: cell growth of Nc1ccc(S(=O)(=O)Nc2cnc3c(Cl)cccc3n2)cc1 ?
Reply text: 100

Inquiry: Quick one: cell growth of COC(C(=O)C(O)C(C)O)C1Cc2cc3cc(OC4CC(OC5CC(O)C(O)C(C)O5)C(O)C(C)O4)c(C)c(O)c3c(O)c2C(=O)C1OC1CC(OC2CC(OC3CC(O)C(OC)C(C)O3)C(O)C(C)O2)C(O)C(C)O1 (configuration not stated) ?
Reply text: 54.3

Inquiry: Quick one: cell growth of CN(C)c1ccc(/C=C2/C=Cc3ccccc32)cc1 ?
Reply text: 101

Inquiry: Quick one: cell growth of Cc1c(Cl)cccc1NC(=O)c1cccc([N+](=O)[O-])c1O ?
Reply text: 106

Inquiry: Quick one: cell growth of Nc1nc(SCc2ccccc2Cl)c2[nH]cnc2n1 ?
Reply text: 106

Inquiry: Quick one: cell growth of Nc1ncnc2c1ncn2[C@@H]1O[C@H](CO)C[C@H]1O ?
Reply text: 89.8

* * *

test system: OVCAR-3-derived ovarian cancer stem-like cells (spheroids); assay: cell growth relative to untreated control; higher = more growth (less inhibition); settings: 2.29 µM; 96 h
cell growth of 80% or higher: Yes. Under 80%: No.

Inquiry: Does cell growth meet or surpass 80% for COC1CC(C)C(OC)c2cc(O)cc(c2O)NC(=O)/C(C)=C/C=C\C(C)C(OC(N)=O)/C(C)=C/C(C)C1OC (configuration not stated) ?
Reply text: No

Inquiry: Does cell growth meet or surpass 80% for CN(CCc1ccccn1)c1ccc2c(c1)C(=O)c1ccccc1-2 ?
Reply text: Yes

Inquiry: Does cell growth meet or surpass 80% for Cc1ccc(NC(=O)/C=C/c2ccccc2)c(C)c1 ?
Reply text: No

Inquiry: Does cell growth meet or surpass 80% for C=CC(=O)N1C/C(=C\c2ccc(Cl)cc2)C(=O)/C(=C/c2ccc(Cl)cc2)C1 ?
Reply text: No

Inquiry: Does cell growth meet or surpass 80% for CN(C)c1ccc(/C=N/N=C2\C(=O)Nc3c(Cl)cc(Cl)cc32)cc1 ?
Reply text: Yes

Inquiry: Does cell growth meet or surpass 80% for COc1ccc(O)cc1 ?
Reply text: No

Inquiry: Does cell growth meet or surpass 80% for N#CC(=S)Nc1ccc(F)cc1 ?
Reply text: Yes

Inquiry: Does cell growth meet or surpass 80% for CC1(C)CCCC2(C)C3=C(CCC12)C(=O)OC3 (configuration not stated) ?
Reply text: Yes

Inquiry: Does cell growth meet or surpass 80% for NC1=C(Br)C(=O)c2ncccc2C1=O ?
Reply text: No

Inquiry: Does cell growth meet or surpass 80% for CC1(C)N=C(N)N=C(N)N1c1ccc(CCCCc2ccc(Cl)cc2Cl)cc1 ?
Reply text: No

Inquiry: Does cell growth meet or surpass 80% for c1coc(CNc2ncnc3[nH]ncc23)c1 ?
Reply text: No

* * *

system: OVCAR-3-derived ovarian cancer stem-like cells (spheroids); experiment: cell growth relative to untreated control; higher = more growth (less inhibition); conditions: 2.29 µM; 96 h
Hi there, I'd appreciate the recorded cell growth for every entry that follows.
Report only the number, with the unit % understood.

Inquiry: Quick one: cell growth of O=C1Oc2ccccc2C(=O)/C1=C1\C=C(c2ccccc2)SS1 ?
Reply text: 158

Inquiry: Quick one: cell growth of CCCCCCCCCCCCC(O)C(=O)O (stereo unspecified) ?
Reply text: 115

Inquiry: Quick one: cell growth of CC(C)=CCC1=C(O)c2ccccc2C(=O)C1=O ?
Reply text: 109

Inquiry: Quick one: cell growth of COc1ccc2oc(-c3ccncc3)cc(=O)c2c1 ?
Reply text: 122

Inquiry: Quick one: cell growth of CC(=O)OCc1c2ccccc2c(C)c2c1cc(F)c1ccccc12 ?
Reply text: 85.4

Inquiry: Quick one: cell growth of Cc1ccc(NC(=O)c2cccc([N+](=O)[O-])c2O)c([N+](=O)[O-])c1 ?
Reply text: 86.3

* * *

Hi there, I'd appreciate the recorded cell growth for every entry that follows.
system: OVCAR-3-derived ovarian cancer stem-like cells (spheroids); test: cell growth relative to untreated control; higher = more growth (less inhibition); conditions: 2.29 µM; 96 h
Report only the number, with the unit % understood.

Inquiry: Quick one: cell growth of O/N=C(\CC(O)(C(F)(F)F)C(F)(F)F)c1cccc(Cl)c1 ?
Reply text: 87.8

Inquiry: Quick one: cell growth of CC(=O)Nc1ccc(-c2nc3ccccc3s2)cc1 ?
Reply text: 171

Inquiry: Quick one: cell growth of Cc1c2cc[n+](CCN3CCCCC3)cc2c(C)c2c1[nH]c1ccc(O)cc12 ?
Reply text: 146

Inquiry: Quick one: cell growth of O=[N+]([O-])c1cccc2nc3ccccc3c(NCCCNc3c4ccccc4nc4cccc([N+](=O)[O-])c34)c12 ?
Reply text: 10.8

Inquiry: Quick one: cell growth of O=[N+]([O-])c1cc(-c2nc(=S)[nH][nH]2)ccc1O ?
Reply text: 98.5

Inquiry: Quick one: cell growth of CC1=C\C(O)CC(=O)Cc2nc(co2)C(=O)N2CCC=C2C(=O)OC(C(C)C)C(C)/C=C/C(=O)NC/C=C\1.CCC1NC(=O)C(NC(=O)c2ncccc2O)C(C)OC(=O)C(c2ccccc2)NC(=O)C2CC(=O)CCN2C(=O)C(Cc2ccc(N(C)C)cc2)N(C)C(=O)C2CCCN2C1=O (centres undefined) ?
Reply text: 80.8

Inquiry: Quick one: cell growth of CCN1C=C/C(=C\C=C\c2cc[n+](CC)c3ccccc23)c2ccccc21 ?
Reply text: 22.2

Inquiry: Quick one: cell growth of COC(=O)/C(=N\NC(=O)c1ccccc1O)C(C#N)c1ccccc1 (centres undefined) ?
Reply text: 99.9

Inquiry: Quick one: cell growth of CN(NC1=NCCO1)c1ccc2ccccc2c1 ?
Reply text: 117

Inquiry: Quick one: cell growth of O=C1OC(c2ccco2)=N/C1=C\c1ccc(Cl)c(Cl)c1 ?
Reply text: 17.7

Inquiry: Quick one: cell growth of O=[N+]([O-])c1ccc(-c2cn(-c3ccc(Cl)cc3)cn2)cc1 ?
Reply text: 106

Inquiry: Quick one: cell growth of Cc1nc(Nc2ccc(Cl)c(Cl)c2)sc1C(/C=C/c1ccc2c(c1)OCO2)=N/Nc1ccc([N+](=O)[O-])cc1[N+](=O)[O-] ?
Reply text: 101

Inquiry: Quick one: cell growth of CC(C)(C)OC(=O)NC(Cc1ccccc1)C(=O)OCN1C(=O)C2C3C=CC(C2C1=O)C1C2C(=O)N(COC(=O)C(Cc4ccccc4)NC(=O)OC(C)(C)C)C(=O)C2C31 (centres undefined) ?
Reply text: 109

Inquiry: Quick one: cell growth of CC1=CC(=O)c2ccccc2C1=O ?
Reply text: 89.6

Inquiry: Quick one: cell growth of O=C1/C(=C\c2ccccc2)CN(C(=O)/C=C/c2ccccc2)C/C1=C\c1ccccc1 ?
Reply text: 74.7

Inquiry: Quick one: cell growth of C[C@@H]1CC[C@H]2C(C)(C)[C@H]3C[C@@]12CC[C@@]3(C)O ?
Reply text: 48.3

Inquiry: Quick one: cell growth of O=C1C(Br)=C(Br)C(=O)c2ccccc21 ?
Reply text: 3.3

Inquiry: Quick one: cell growth of O=C1C=C(Nc2cccnc2)c2ccccc2C1=O ?
Reply text: 59.3

Inquiry: Quick one: cell growth of N=C1C=C(N)C(=O)c2[nH]c(=O)ccc21 ?
Reply text: 95.3
